Molecular target: Human recombinant PDE10A (hPDE10A) (Homo sapiens)
Construct: His tag (inferred from metal chelate purification); made in house; host or cells: Sf9 insect cells (baculovirus)
Test: In vitro assay PDE10A, human clone (SPA, 3H-cAMP hydrolysis)
Assay type: biochemical
Conditions: human clone by default (no (r) mark); read-out: hPDE10A2 or rPDE10A2 pIC50 (converted)
testReadout: IC50 (µM)

Ask | Note IC50 for the compound shown: O=C(c1cn2ccsc2n1)N1[C@H]2CC[C@H](c3cc(C(F)F)nc4ncnn34)[C@@H]1CC2 [Compound 360]
Reply | 6.92

[a] C[C@@H]1CCN(C(=O)c2ccc(O)nn2)C[C@H]1c1cc(C(F)F)nc2ncnn12 [Compound 236]
[b] C[C@@H]1CCN(C(=O)c2ccc(O)c(C#N)c2)C[C@H]1c1cc(C(F)F)nc2ncnn12 [Compound 231]
[c] Cc1cc(C(=O)N2CC[C@@H](C)[C@H](c3cc(C(F)F)nc4ncnn34)C2)cc(OC(F)F)n1 [Compound 281]
Ask | Task field, ranking: reported IC50, descending order. # answer = labels listed in requested order
Reply | a, c, b
(a: 7.76 µM, c: 0.11 µM, b: 0.0195 µM)

----------
Molecular target: Human recombinant PDE10A (hPDE10A) (Homo sapiens, UniProt Q9Y233)
Construct: His tag (inferred from metal chelate purification); made in house; host or cells: Sf9 insect cells (baculovirus)
Sequence (Q9Y233 267-1055): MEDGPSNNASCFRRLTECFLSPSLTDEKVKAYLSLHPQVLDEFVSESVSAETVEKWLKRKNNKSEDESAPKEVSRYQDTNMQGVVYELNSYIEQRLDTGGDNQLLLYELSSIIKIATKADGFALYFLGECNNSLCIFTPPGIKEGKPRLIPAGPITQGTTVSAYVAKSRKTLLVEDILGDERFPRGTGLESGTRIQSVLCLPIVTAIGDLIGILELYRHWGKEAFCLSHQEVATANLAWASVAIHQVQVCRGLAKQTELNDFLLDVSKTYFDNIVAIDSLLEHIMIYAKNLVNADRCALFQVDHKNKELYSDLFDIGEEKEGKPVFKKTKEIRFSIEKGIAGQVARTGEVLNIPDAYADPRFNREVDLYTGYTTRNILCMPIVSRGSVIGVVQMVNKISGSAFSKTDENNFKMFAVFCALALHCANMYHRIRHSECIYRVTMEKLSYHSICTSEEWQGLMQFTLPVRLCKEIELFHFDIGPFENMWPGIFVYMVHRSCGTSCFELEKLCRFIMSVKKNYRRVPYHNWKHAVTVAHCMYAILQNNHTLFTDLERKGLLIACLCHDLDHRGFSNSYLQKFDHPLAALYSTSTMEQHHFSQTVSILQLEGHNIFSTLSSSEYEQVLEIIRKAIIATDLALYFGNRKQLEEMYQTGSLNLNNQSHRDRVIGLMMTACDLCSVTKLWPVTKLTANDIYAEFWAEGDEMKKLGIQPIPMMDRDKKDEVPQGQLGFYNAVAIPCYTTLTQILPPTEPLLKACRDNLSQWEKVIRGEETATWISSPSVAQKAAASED
Assay: In vitro assay PDE10A, human clone (SPA, 3H-cAMP hydrolysis)
Type: biochemical
Details: human clone by default (no (r) mark); read-out: hPDE10A2 or rPDE10A2 Emax
testReadout: Emax (%)

Ask | Note Emax for the compound shown: Cc1cc(C(=O)N2CC[C@@H](C)[C@H](c3cc(C(F)F)nc4ncnn34)C2)cc(C(F)F)n1
Reply | 97

Ask | Note Emax for the compound shown: Cc1cc(C(=O)N2CC[C@@H](C)[C@H](c3cc(C(F)F)nc4ncnn34)C2)c(F)c(OC2CC2)n1
Reply | 93

Ask | Note Emax for the compound shown: Cc1cc([C@H]2CN(C(=O)c3cc(C)c(F)c(C)c3)CC[C@@H]2C)n2ncnc2n1
Reply | 72

[P] C[C@@H]1CCN(C(=O)c2ccc(C(F)(F)F)nc2Cl)C[C@H]1c1cc(C(F)F)nc2ncnn12
[Q] C[C@@H]1CCN(C(=O)c2cc(C3CC3)ncc2F)C[C@@]1(F)c1cc(C(F)F)nc2ncnn12
[R] Cc1cc([C@@H]2CN(C(=O)c3cc(C4CC4)ncc3C3CC3)CC[C@H]2C)n2ncnc2n1
Ask | Arrange the 3 compounds by rising Emax, starting with the smallest. # answer = labels listed in requested order
Reply | Q, P, R

[A] Cc1cc(C(=O)N2CC[C@@H](C)[C@H](c3cc(C(F)F)nc4ncnn34)C2)cc(OC(F)F)n1
[B] Cc1cnc(C(=O)N2CC[C@@H](C)[C@H](c3cc(C(F)F)nc4ncnn34)C2)cn1
Ask | // compare: A vs B , metric Emax, want the smaller Returns: label corresponding to the selected item.
Reply | B
(B: 48%, A: 99%)

----------
Target: Human recombinant PDE10A (hPDE10A) (Homo sapiens)
Construct: His tag (inferred from metal chelate purification); made in house; host or cells: Sf9 insect cells (baculovirus)
Assay: In vitro assay PDE10A, human clone (SPA, 3H-cAMP hydrolysis)
Assay type: biochemical
Details: human clone (h), default; read-out: hPDE10A2 pIC50 (converted)
testReadout: IC50 (nM)

Solved cases (9 shown):
Ask | Note IC50 for the compound shown: C[C@@H]1CCN(C(=O)c2cc(Cl)nc(Cl)c2F)C[C@H]1c1cc(C(F)F)nc2ncnn12
Reply | 339

Ask | Note IC50 for the compound shown: Cc1cc([C@@H]2CN(C(=O)c3oc4ccccc4c3C)CC[C@H]2C)n2ncnc2n1
Reply | 17

Ask | Note IC50 for the compound shown: C[C@@H]1CCN(C(=O)c2cnc(Br)s2)C[C@H]1c1cc(C(F)F)nc2ncnn12
Reply | 417

Ask | Note IC50 for the compound shown: COc1cc(C(=O)N2CC[C@@H](C)[C@H](c3cc(C(F)F)nc4ncnn34)C2)c(F)cn1
Reply | 468

Ask | Note IC50 for the compound shown: Cc1nc2cccc(C(=O)N3CC[C@@H](C)[C@H](c4cc(C(F)F)nc5ncnn45)C3)c2o1
Reply | 724

Ask | Note IC50 for the compound shown: C[C@@H]1CCN(C(=O)c2ccc(Cl)c(C(F)(F)F)c2)C[C@H]1c1cc(C(F)F)nc2ncnn12
Reply | 178

Ask | Note IC50 for the compound shown: Cc1cc([C@@H]2CN(C(=O)c3ccn(C)c3)CC[C@H]2C)n2ncnc2n1
Reply | 89.1

Ask | Note IC50 for the compound shown: Cc1ccc(C(=O)N2CC[C@@H](C)[C@H](c3cc(C(F)F)nc4ncnn34)C2)nc1C
Reply | 1200

Ask | Note IC50 for the compound shown: C[C@@H]1CCN(C(=O)c2cc(F)cc(C#N)c2)C[C@H]1c1cc(C(F)F)nc2ncnn12
Reply | 158

[A] C[C@@H]1CCN(C(=O)c2nccnc2Cl)C[C@H]1c1cc(C(F)F)nc2ncnn12
[B] COc1ccc(C(=O)N2CC[C@@H](C)[C@H](c3cc(C(F)F)nc4ncnn34)C2)cn1
[C] C[C@@H]1CCN(C(=O)c2cc(Cl)ncc2Cl)C[C@H]1c1cc(C(F)F)nc2ncnn12
[D] COc1ccc(C(=O)N2CC[C@@H](C)[C@H](c3cc(C(F)F)nc4ncnn34)C2)cc1OC(F)F
[E] Cc1cc(C(=O)N2CC[C@@H](C)[C@H](c3cc(C(F)F)nc4ncnn34)C2)cc(C(F)(F)F)n1
Ask | Task field, ranking: reported IC50, descending order. # answer = labels listed in requested order
Reply | A, C, B, E, D
